Test system: SF-539 CNS
Assay: NCI tumour cell line growth inhibition, 48 h
Assay Endpoint: GI50

Example molecules with recorded GI50:
COc1ccc(CN2CCCC(C(=O)c3ccc(C(F)(F)F)cc3)C2)c(O)c1 (stereo not drawn)	18.8 µM
Cn1c(-c2nonc2N)nc2cnccc21	12.2 µM
O=[n+]1c(CBr)c(CBr)n([O-])c2ccccc21	13.3 µM
Fc1ccc(-c2nn(-c3ccccc3)cc2-c2nc3ccccc3o2)cc1	8.88 µM
ClCc1ccccc1CSc1ncnc2nc[nH]c12	> 60 µM
CC[n+]1ccc2c(c1)C(=O)c1nccc3c1c-2nc1ccccc13	0.489 µM
CCN1CCN(c2nc(NCCNc3ccnc4cc(Cl)ccc34)c3ccccc3n2)CC1	1.83 µM
Cc1c(N2C(=O)/C(=C\c3ccccc3O)N=C2c2ccccc2)c(=O)n(-c2ccccc2)n1C	33.5 µM
C[C@@H]1Cc2c([nH]c3ccccc23)[C@@H](c2c(F)cc(/C=C/C(=O)O)cc2F)N1CC(C)(C)F	14.5 µM
NS(=O)(=O)c1ccc(-n2nc(-c3ccc(Br)cc3)ccc2=O)cc1	> 10 µM

Exercise: Please report GI50 for the following molecule: O=C1c2ccccc2C(=O)c2c1ccc1[nH]c(CCl)nc21
Solution: 3.16 µM

Exercise: Please report GI50 for the following molecule: COc1ccc(CNC(=O)COc2ccc(/C=N/Nc3nc4ccccc4s3)cc2)cc1
Solution: 1.65 µM

Exercise: Please report GI50 for the following molecule: COC(=O)c1c2c(c(C)[n+]([O-])c1C)C(=O)C=CC2=O
Solution: 1.8 µM

---

System: SNB-19 CNS
Assay: NCI tumour cell line growth inhibition, 48 h
Attribute: TGI

COC(=O)c1c(OC)cccc1C(=O)O	> 100 µM

Exercise: Please report TGI for the following compound: COc1ccc(NC2Oc3cc4c(cc3C(c3cc(OC)c(OC)c(OC)c3)C2C)OCO4)cc1 (stereo unspecified)
Solution: > 100 µM

Exercise: Please report TGI for the following compound: Cc1cccc(C(C)(C)C)c1NC(=O)C(=O)Cc1nc2ccccc2s1
Solution: > 100 µM

Exercise: Please report TGI for the following compound: CO/N=C1/c2sccc2[C@H](NC(=O)CNC(=O)OC(C)(C)C)[C@@H]1O
Solution: > 100 µM

Exercise: Please report TGI for the following compound: COc1cc([C@@H]2c3cc4c(cc3C[C@H]3COC(=O)[C@@H]32)OCO4)cc(OC)c1OC
Solution: > 7.93 µM

Exercise: Please report TGI for the following compound: O=S(=O)(O)C(O)/C=C/c1ccccc1 (stereo unspecified)
Solution: > 100 µM

Exercise: Please report TGI for the following compound: ClCc1ccccc1CSc1ncnc2nc[nH]c12
Solution: > 60 µM

Exercise: Please report TGI for the following compound: CN=C1NC(=O)/C(=C/c2ccc3ncccc3c2)S1
Solution: > 25 µM

Exercise: Please report TGI for the following compound: Cc1nc(Cl)c(CBr)c(Cl)n1
Solution: 11.2 µM

Exercise: Please report TGI for the following compound: CCOC(=O)c1c(N)n(-c2ccccc2)c(=S)n(-c2ccccc2)c1=O
Solution: > 100 µM

Exercise: Please report TGI for the following compound: O=C1/C(=C/c2ccc(Br)s2)NC(=S)N1CN1CCOCC1
Solution: > 100 µM
